# ASSAY INFO: small-molecule binders of probe aInhba, primary screen, biochemical, small-molecule microarray, 635/667 nm fluorescence (AID 1148);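 also: score merges 667nm spot fluorescence with signal-to-noise for antibody binding to printed compounds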
# RECORDED CONDITIONS: higher = more signal
Listed molecules paired with reported composite z-score
Keep the answer to the number alone.

| MOLECULE | composite z-score |
| --- | --- |
| CC1(C)C2C=C(C(O)C3C=CC4C(=O)NC(=O)C4N3Nc3ccc(Cl)cc3Cl)C[C@@H]1C2 (stereo partly drawn) | 0.0236 |

composite z-score lookup needed for NC(=O)NCC#Cc1ccc2c(c1)[C@]1(C(=O)N2)[C@H](c2ccccc2OCCO)N2[C@H](c3ccccc3)[C@H](c3ccccc3)OC(=O)[C@H]2[C@@H]1C(=O)Nc1nc2ccccc2s1 , thanks.
0.0314

C=CCOC(=O)[C@H]1[C@@H]2C(=O)O[C@@H](c3ccccc3)[C@@H](c3ccccc3)N2[C@@H](c2ccc(OCCOC(=O)[C@H]3C[C@H]4C(=O)N[C@@H](CCCCN(C)C)C(=O)N4[C@H]3c3ccc(O)cc3)cc2)[C@]12C(=O)Nc1ccc(I)cc12 , same question.
0.135

----------
# ASSAY INFO: PSAC antagonists in infected red cells, primary screen, cell-based, P. falciparum Indochina, OD700, 1 h (AID 1154)
# RECORDED CONDITIONS: P. falciparum Indochina infected RBC osmotic lysis, called active from +8 up or from −8 down
The source made the active and inactive calls.
Response enum: YES = active, NO = inactive

Dear colleague, could you share the recorded outcome for C=CCC(OC(C)=O)[C@@H]1[C@@H](N(Cc2ccc(-c3ccccc3)cc2)C(=O)c2ccc(-c3ccccc3)cc2)c2cc(OCCCO)ccc2N1C(=O)Cc1ccc2ccccc2c1 (stereo partly specified) when you have a moment?
NO

----------
Listed compounds paired with reported z-score
# ASSAY INFO: yeast growth modulation, basal conditions, primary screen, YJM789 clinical isolate, OD600, 24 h (AID 1089);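 also: growth of clinical yeast isolate S. cerevisiae YJM 789 seeded 1000 cells per well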
# RECORDED CONDITIONS: S. cerevisiae YJM789 growth, higher = more signal, called active from +8 up or from −8 down
Keep the answer to the number alone.

Here's what some known entries look like.
| COMPOUND | z-score |
| --- | --- |
| C=CCNC(=O)[C@@H]1[C@H]2C(=O)O[C@H](c3ccccc3)[C@H](c3ccccc3)N2[C@H](c2ccc(O)cc2)[C@@]12C(=O)N(C(=O)OCCOC)c1ccc(C#CCNC(N)=O)cc12 | -1.76 |
| CCCC[C@@H]1C[C@H]1[C@@H](NC(=O)c1ccccc1)c1ccc(C(=O)OC)cc1 | -1.24 |

z-score lookup needed for COCCOC(=O)N1C(=O)[C@@]2(c3cc(C#CCC(C(=O)OC)C(=O)OC)ccc31)[C@H](c1ccccc1OCCO)N1[C@H](c3ccccc3)[C@H](c3ccccc3)OC(=O)[C@H]1[C@@H]2C(=O)NC[C@H](O)c1ccccc1 , thanks.
1.78

C[C@@]1([C@@H](NC(=O)c2ccc(-c3ccccc3)cc2)c2ccc(Cl)cc2)C[C@H]1C1CCCCC1 , same question.
0.823

C=C(CCCC)/C(=C/C[C@@H](OC(C)=O)c1ccc(OCCO)cc1)c1cnc2ccccc2c1 , same question.
0.273

OCCCC1=CC(c2cccs2)N(Cc2cc3c(cc2Br)OCO3)CC1 (centres undefined) , same question.
-0.678

C=CCNC(=O)[C@@H]1[C@H]2C(=O)O[C@H](c3ccccc3)[C@H](c3ccccc3)N2[C@H](c2ccc(OCCO)cc2)[C@@]12C(=O)Nc1ccc(C#CCC(C(=O)OC)C(=O)OC)cc12 , same question.
1.87

CCS[C@H]1[C@@H](C(=O)O)[C@H](c2ccc(C)cc2)N(S(=O)(=O)c2ccc(C)cc2)[C@@H]1CC , same question.
-0.406

[N-]=[N+]=Nc1ccccc1[C@H]1OC(c2ccc(OCCCO)cc2)=N[C@@]1(CCS(=O)(=O)c1ccccc1)C(=O)NCC(O)CO (some centres undefined) , same question.
-0.733

----------
Listed compounds paired with reported z-score
# ASSAY INFO: basal 3T3-L1 adipocyte mitochondrial potential changes, profiling panel, cell-based, JC-1 fluorescence, 3T3-L1 adipocytes, 24 h, 100 nL compound (AID 1168)
# RECORDED CONDITIONS: JC-1 mitochondrial fluorescence, higher = more signal, called active from +8 up or from −8 down
Activity calls are given as the source filed them.

| COMPOUND | z-score |
| --- | --- |
| CCCCCCc1nc(-c2cc(C)c(OC)c(C)c2)cc2c1[Si](C(C)C)(C(C)C)OC2 | -0.385 (inactive) |
| C=C[C@@H](COC(=O)OC(C)(C)C)N(Cc1ccc(OC)cc1)S(=O)(=O)c1ccc(Br)cc1 | -0.239 (inactive) |
| COC(=O)C(CC#Cc1ccc2c(c1)[C@]1(C(=O)N2)[C@H](C(=O)Nc2nc3ccccc3s2)[C@H]2C(=O)O[C@H](c3ccccc3)[C@H](c3ccccc3)N2[C@@H]1c1ccc(O)cc1)C(=O)OC | -0.383 (inactive) |
| COc1ccc(C#Cc2ccc3c(c2)[C@]2(C(=O)N3)[C@H](c3ccccc3OCCO)N3[C@H](c4ccccc4)[C@H](c4ccccc4)OC(=O)[C@H]3[C@@H]2C(=O)Nc2nc3ccccc3s2)cc1 | 2.29 (inactive) |
| [N-]=[N+]=Nc1ccccc1[C@@H]1OC(c2ccc(OCCCO)cc2)=N[C@]1(Cc1ccccc1)C(=O)N1CCOCC1 | 2.15 (inactive) |

z-score lookup needed for C=CCC(OC(C)=O)[C@@H]1[C@@H](N(Cc2cccc3ccccc23)C(=O)c2ccc(-c3ccccc3)cc2)c2cc(OCCCO)ccc2N1C(=O)c1ccc2ccccc2c1 (some centres not stated) , thanks.
-0.693 (inactive)

COc1ccc([Si](C)(C)[C@H]2[C@H](CC(=O)N3Cc4ccccc4C[C@H]3CO)O[C@@]3(C(=O)N(Cc4cccc(N5CCC5=O)c4)c4ccccc43)[C@@H]2C)cc1 , same question.
0.465 (inactive)

C=CCC(OC(C)=O)[C@@H]1[C@@H](N(Cc2ccc(-c3cccc(C(F)(F)F)c3)o2)C(=O)c2ccc(C)cc2)c2cc(OCCCO)ccc2N1C(=O)Cc1ccc2ccccc2c1 (some centres not stated) , same question.
0.417 (inactive)

COc1ccccc1CN1C(=O)c2ccccc2[C@@H](C(=O)NC2CC2)[C@@H]1c1ccc(CO)cc1 , same question.
0.171 (inactive)

O=C1O[C@@H](c2ccccc2)[C@@H](c2ccccc2)N2[C@@H](c3ccccc3OCCO)[C@]3(C(=O)Nc4ccccc43)[C@@H](C(=O)Nc3nc4ccccc4s3)[C@H]12 , same question.
3.87 (inactive)

COCCOC(=O)N1C(=O)[C@@]2(c3cc(C#CC4(O)CCCCCC4)ccc31)[C@H](c1ccccc1OCCO)N1[C@H](c3ccccc3)[C@H](c3ccccc3)OC(=O)[C@H]1[C@@H]2C(=O)N1CCN(c2ncccn2)CC1 , same question.
1.86 (inactive)

C=CCC(OC(C)=O)[C@@H]1[C@@H](N(Cc2cc3ccccc3o2)C(=O)c2cccc3ccccc23)c2cc(OCCCO)ccc2N1C(=O)c1ccc(-c2ccccc2)cc1 (some centres not stated) , same question.
0.0822 (inactive)

----------
# SYSTEM NAME: Epidermal growth factor receptor (Homo sapiens)
# ASSAY INFO: EGFR binders on small-molecule microarrays, primary screen, biochemical, small-molecule microarray, 635 nm fluorescence (AID 1104);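 also: score merges 667 nm emission intensity with spot signal to noise over triplicate slides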
# RECORDED CONDITIONS: EGFR binding, higher = more signal
QUANTITY MEASURED: composite z-score
Keep the answer to the number alone.

| MOLECULE | MEASURED RESULT |
| --- | --- |
| C=CC[C@@]1(C(=O)NCCN2CCOCC2)N=C(c2ccc(OCCCO)cc2)O[C@@H]1c1ccccc1N=[N+]=[N-] | 0.539 |
| CN1C(=O)C2C=CC(C(O)c3ccco3)N(Nc3ccccc3)C2C1=O (centres undefined) | 0.466 |

# returns recorded composite z-score (system: Epidermal growth factor receptor (Homo sapiens)) for O=C1C2C=CC(C(O)c3cc(C(F)(F)F)cc(C(F)(F)F)c3)N(n3cnnc3)C2C(=O)N1Cc1ccccc1 (centres undefined)
-0.165

COC(=O)[C@@]1(Cc2ccccc2)[C@H]2c3cc(C(=O)N(C)C)n(Cc4ccsc4Br)c3C[C@H]2CN1C(=O)c1ccccc1 , same question.
-0.354

----------
# System: XIP peptide (Xip251-270)
# ASSAY INFO: small-molecule binders of XIP peptide, primary screen, biochemical, small-molecule microarray, fluorescence 635/667 nm, 0.5 µg/mL protein (AID 1183)
# RECORDED CONDITIONS: small-molecule microarray binding, fluorescence 635 nm; higher = more signal
Decision: composite z-score >= 0.6 yields 1 (yes), all other cases yield 0 (no).

Study these solved cases before continuing.
| COMPOUND | LABEL CLASS |
| --- | --- |
| COC(=O)[C@@]1(Cc2ccccc2)N=C(c2ccc(OCCCO)cc2)O[C@H]1c1ccccc1 | 1 (yes) |
| COc1cc2c(cc1O)C(C1CC1)N(Cc1sc3ccccc3c1Cl)CC2 (stereo not given) | 1 (yes) |

Determine whether measured composite z-score meets or exceeds 0.6 for C[N+](C)(C)CCCCNC(=O)[C@H]1C[C@H]2C(=O)N3CCC[C@H]3C(=O)N2[C@H]1c1cccc(OCCO)c1
0 (no)

COCCOC(=O)N1C(=O)[C@@]2(c3cc(C#CC4(O)CCCCCC4)ccc31)[C@H](c1ccccc1OCCO)N1[C@H](c3ccccc3)[C@H](c3ccccc3)OC(=O)[C@H]1[C@@H]2C(=O)N1CCN(c2ncccn2)CC1 , same question.
1 (yes)

CC(C)(C)OC(=O)CC[C@]1(C(=O)N2CCOCC2)N=C(c2ccc(OCCCO)cc2)O[C@H]1c1ccccc1N=[N+]=[N-] , same question.
0 (no)

CC(C)C(=C=CC[C@@H](O)c1ccc(OCCO)cc1)C[C@@H](O)c1ccccn1 , same question.
0 (no)

CC(C)OC(=O)C=C1C[C@@H](c2ccccn2)O[C@@H](c2ccccn2)O1 , same question.
0 (no)

CCC(CC)C(O)C1C=CC2C(=O)NC(=O)C2N1Nc1ccccn1 (stereo not given) , same question.
0 (no)

CC1CC/C=C\[C@H]2OC34C=CCN(C(C)(C)C)C(=O)[C@H]3N(CCO)C(=O)[C@@H]4C2C(=O)O1 (stereo not given in full) , same question.
1 (yes)

CCCCCN1CC=CC23O[C@@H]4/C=C\CCC(C)OC(=O)C4[C@H]2C(=O)N(C(C)CO)[C@@H]3C1=O (stereo not given in full) , same question.
0 (no)

Cc1ccc(S[C@]2(C(=O)NC3CC3)CC(=O)N(Cc3ccccc3)[C@@H]2c2ccc(CO)cc2I)cc1 , same question.
0 (no)

Cc1ccc([C@@H]2C[C@@H](Sc3ccccc3)[C@H](C(=O)O)CN2S(=O)(=O)c2ccc(C)cc2)cc1 , same question.
1 (yes)

CN(C)C(=O)[C@@]1(CCS(=O)(=O)c2ccccc2)COC(c2ccc(OCCCO)cc2)=N1 , same question.
0 (no)

C=CC[C@]1(C(=O)NCCCOC)N=C(c2ccc(OCCCO)cc2)O[C@H]1c1ccccc1CN=[N+]=[N-] , same question.
1 (yes)

CN(C)CCCCCCNC(=O)[C@H]1C[C@H]2C(=O)N[C@@H](CCCCN)C(=O)N2[C@H]1c1cccc(OCCO)c1 , same question.
1 (yes)

O=C(CS)NCCCCCCNC(=O)[C@@H]1C[C@@H]2C(=O)N[C@@H](Cc3ccccc3)C(=O)N2[C@@H]1c1cccc(OCCO)c1 , same question.
1 (yes)

C[N+](C)(C)CCCCNC(=O)[C@@H]1C[C@@H]2C(=O)N[C@@H](Cc3ccccc3)C(=O)N2[C@@H]1c1cccc(OCCO)c1 , same question.
1 (yes)

CC(C)=CCCC(C)=CC(O)C1C=CC2C(=O)N(C)C(=O)C2N1Nc1ccccc1 (stereo not given) , same question.
1 (yes)

COCCCNC(=O)[C@@]1(C)c2ccccc2C(=O)N(C(C)C)[C@H]1c1ccc(CO)cc1 , same question.
0 (no)

CO[C@H]1O[C@H](CO)[C@@H](OC(=O)Nc2cccc(F)c2)[C@H](OC(=O)Nc2ccccc2)[C@@H]1OC(=O)Nc1ccccc1 , same question.
1 (yes)

C=CC1(C(=O)OC)CC=C(C(=O)OC)CC1 (stereo not given) , same question.
1 (yes)

COC(=O)[C@@]1(Cc2ccc(OC)cc2)[C@H]2c3cc(C(=O)N(C)C)n(Cc4ccc(S(C)(=O)=O)cc4)c3C[C@H]2CN1C(=O)c1ccccc1 , same question.
0 (no)

COCCOC(=O)N1C(=O)[C@@]2(c3cc(C#CCCO)ccc31)[C@H](C(N)=O)[C@H]1C(=O)O[C@H](c3ccccc3)[C@H](c3ccccc3)N1[C@@H]2c1ccc(O)cc1 , same question.
0 (no)

CN(C)CCCCCCNC(=O)[C@@H]1C[C@@H]2C(=O)N[C@@H](Cc3ccccc3)C(=O)N2[C@@H]1c1ccc(O)cc1 , same question.
1 (yes)

CC(=O)NCCCC[C@@H]1NC(=O)[C@@H]2C[C@H](C(=O)NCCCCCNC(=O)CS)[C@H](c3cccc(OCCO)c3)N2C1=O , same question.
0 (no)

CC1(C)[C@@H]2CC(C(O)C3C=CC4C(=O)N(c5ccccc5)C(=O)C4N3Nc3ccc([N+](=O)[O-])cc3)=C[C@H]1C2 (stereo not given in full) , same question.
1 (yes)

COCCOC(=O)N1C(=O)[C@@]2(c3cc(C#Cc4ccc(OC)cc4)ccc31)[C@H](c1ccc(O)cc1)N1[C@H](c3ccccc3)[C@H](c3ccccc3)OC(=O)[C@H]1[C@@H]2C(=O)N1CCc2cc(OC)c(OC)cc2C1 , same question.
1 (yes)

C=C(C)[C@@H]1CC=C(C(O)C2C=CC3C(=O)N(c4ccccc4)C(=O)C3N2Nc2ccccc2)CC1 (stereo not given in full) , same question.
1 (yes)
